- Test system: 201T
- assay overview: relative viability (nuclei count vs DMSO), 5 days (fraction); higher = more cells survive
- condition notes: first compound 0.005 µM
relative viability by entry:
Format: numeric value only, no unit, no commentary.

Examples with answers:
CC1(C)CCC(c2ccc(Cl)cc2)=C(CN2CCN(c3ccc(C(=O)NS(=O)(=O)c4ccc(N[C@H](CCN5CCOCC5)CSc5ccccc5)c(S(=O)(=O)C(F)(F)F)c4)cc3)CC2)C1 [Navitoclax] + CC(=O)Nc1cccc(-n2c(=O)n(C3CC3)c(=O)c3c(Nc4ccc(I)cc4F)n(C)c(=O)c(C)c32)c1 [Trametinib] (partner 0.02 µM)    0.715
CC1(C)CCC(c2ccc(Cl)cc2)=C(CN2CCN(c3ccc(C(=O)NS(=O)(=O)c4ccc(N[C@H](CCN5CCOCC5)CSc5ccccc5)c(S(=O)(=O)C(F)(F)F)c4)cc3)CC2)C1 [Navitoclax] + CCNC(=O)c1noc(-c2cc(C(C)C)c(O)cc2O)c1-c1ccc(CN2CCOCC2)cc1 [Luminespib] (partner 0.01 µM)    1.05

Task: Consider the compound CC1(C)CCC(c2ccc(Cl)cc2)=C(CN2CCN(c3ccc(C(=O)NS(=O)(=O)c4ccc(N[C@H](CCN5CCOCC5)CSc5ccccc5)c(S(=O)(=O)C(F)(F)F)c4)cc3)CC2)C1 [Navitoclax] + NC(=O)Nc1cc(-c2cccc(F)c2)sc1C(=O)N[C@H]1CCCNC1 [AZD7762] (partner 0.2 µM) . State its measured relative viability.
Output: 0.656
